Origin of the recorded values: PubChem BioAssay (NCI)

system: SNB-19 CNS; assay: NCI-60 one-dose screen, 48 h (100 = growth as untreated, 0 = no growth, -100 = all killed); conditions: 10 µM unless noted
Compounds without any hit were thinned out: in the full panel of roughly 83,000, 20% have a hit.
# Lookup of reported growth keyed by entry
Express the result in % but write the number alone.

Cc1cccc(N2CCN(C3=C(Cl)C(=O)c4ncccc4C3=O)CC2)c1	79.5

Exercise: So what does the record say about growth for "CCOC(=O)c1c(NC(=O)c2ccc(C(F)(F)F)cc2)sc2c3c(ccc12)OCN(C)C3" ?
Key: 26.7

Exercise: So what does the record say about growth for "COc1cc(-c2nc(-c3ccccc3)[nH]c2-c2ccnc(NCCCNS(=O)(=O)c3cccc(F)c3)n2)ccc1F" ?
Key: 107

Exercise: So what does the record say about growth for "O=C(N/N=C/c1cc2ccccc2nc1Cl)c1cc(-c2nc3ccccc3[nH]2)nc2ccccc12" ?
Key: 95.3

Exercise: So what does the record say about growth for "O=C(CCCCCCN1CC(=O)N2[C@@H](c3cccs3)c3[nH]c4ccccc4c3C[C@H]2C1=O)NO" ?
Key: 78.1

Exercise: So what does the record say about growth for "O=C(CCCCCCNC(=O)C(O)(O)C(F)(F)F)Nc1nc2ccccc2s1" ?
Key: 17

Exercise: So what does the record say about growth for "C#C[C@]1(O)CC[C@H]2[C@@H]3CC=C4c5sc(NCc6ccccc6)nc5CC[C@]4(C)[C@H]3CC[C@@]21C" ?
Key: 66.2

Exercise: So what does the record say about growth for "Cc1ccc(/C(N)=N/C(N)=N/c2nc3ccccc3s2)cc1" ?
Key: 95.3

Exercise: So what does the record say about growth for "Cn1ncc2c(C(=O)c3ccc(F)cc3)nc(C(C)(C)C)nc21" ?
Key: 95.4

====

# Lookup of reported growth keyed by entry
tested on: RPMI-8226 leukemia; assay: NCI-60 one-dose screen, 48 h (100 = growth as untreated, 0 = no growth, -100 = all killed); settings: 10 µM unless noted
The panel holds about 83,000 compounds, 20% with a hit somewhere; the sample as a whole holds those more often.
Express the result in % but write the number alone.

Answered examples (3):
COc1ccc(/C(=N\N=C(N)N)c2ccc(Cl)cc2)cc1OC	70.4
CCCCCCNC(=O)Oc1ccc(/C(=C(/C)c2ccc(Cl)cc2)c2ccc(OCCN3CCCCCC3)cc2)cc1	64.3
O=S(=O)(NCCCNc1nccc(-c2[nH]c(-c3ccccc3)nc2-c2ccc(F)c(O)c2)n1)c1cccc2ccccc12	4.6

We now examine a further compound.
Exercise: So what does the record say about growth for "O=S(=O)(NCCCNc1nccc(-c2[nH]c(-c3ccccc3)nc2-c2ccc(F)c(O)c2)n1)c1ccccc1" ?
Key: 48.9

====

tested on: SK-MEL-5 melanoma; assay: NCI-60 one-dose screen, 48 h; settings: 10 µM unless noted
The panel holds about 83,000 compounds, 20% with a hit somewhere; the sample as a whole holds those more often. The source made the active and inactive calls. The calls were made as follows: active = growth percent below 10; inactive = the rest.
A correct response names exactly one class from active, inactive

CN1CCN(Cc2ccc(NC(=O)c3cncc(C#Cc4cnc(N)nc4)c3)cc2C(F)(F)F)CC1	inactive
Cc1ccc2c(n1)C(=O)C(Cl)=C(Nc1cccc(C(F)(F)F)c1)C2=O	inactive
O=C(CSc1nc2ccccc2c(=O)n1-c1ccc(S(=O)(=O)Nc2ccc(Cl)nn2)cc1)Nc1ccc(S(=O)(=O)Nc2ccc(Cl)nn2)cc1	inactive
Cc1ccc2c(n1)C(=O)C(Cl)=C(Nc1cccc(C)c1C)C2=O	active
O=C(Nc1cc(C(F)(F)F)cc(C(F)(F)F)c1)Nc1ccc2oc(=O)ccc2c1	active
NC1C2CCC1CN(c1cnc(C(=O)Nc3cc(F)cc4cccnc34)cn1)C2 (configuration not stated)	inactive

Now look at this entry.
Exercise: Assay result, entry "NS(=O)(=O)c1cccc(Nc2nc(SCC(=O)c3ccc(Cl)cc3)nc3c2CCC3)c1" — outcome?
Key: inactive
